Consider the following compounds and their measured pIC50 readings.
# assayedTarget: human glucagon receptor (Homo sapiens, UniProt P47871)
# Construct: expressed in transfected cells; host or cells: BHK (baby hamster kidney) cells
# Sequence (P47871 26-477): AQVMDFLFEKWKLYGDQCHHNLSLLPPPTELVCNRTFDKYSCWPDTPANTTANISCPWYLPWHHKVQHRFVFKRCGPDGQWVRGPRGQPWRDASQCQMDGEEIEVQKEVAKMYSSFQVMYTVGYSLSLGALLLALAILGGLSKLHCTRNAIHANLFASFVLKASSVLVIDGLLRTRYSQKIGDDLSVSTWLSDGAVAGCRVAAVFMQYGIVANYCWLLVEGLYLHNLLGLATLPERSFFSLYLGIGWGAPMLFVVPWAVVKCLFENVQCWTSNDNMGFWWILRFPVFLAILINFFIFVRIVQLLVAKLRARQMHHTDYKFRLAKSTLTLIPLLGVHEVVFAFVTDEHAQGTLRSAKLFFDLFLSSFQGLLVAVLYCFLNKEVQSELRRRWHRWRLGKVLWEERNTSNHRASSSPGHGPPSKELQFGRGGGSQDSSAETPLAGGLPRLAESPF
# assayDetails: Glucagon Binding Assay (III)
# conditionSummary: BHK cell membranes, WGA SPA beads, 125I-glucagon; read-out: Glu Bd Assay (III) IC50
Value format note: pIC50 is -log10 of concentration (mol/L); just state the number.

See these solved cases before continuing.
{"columns": ["compound", "pIC50"],
 "data": [
  ["CS(=O)(=O)c1cccc(NC(=O)N(Cc2ccc(C(=O)Nc3nn[nH]n3)cc2)C2CCC3(CCCCC3)CC2)c1 [Example 620]", 6.27],
  ["CC(C)(C)C1CCC(N(Cc2ccc(C(=O)Nc3nn[nH]n3)cc2)C(=O)c2cccc(C(F)(F)F)c2)CC1 (stereo not shown) [Example 514]", 6.18],
  ["CC(C)(C)C1CCC(N(Cc2ccc(C(=O)Nc3nn[nH]n3)cc2)C(=O)Nc2cccc(S(C)(=O)=O)c2)CC1 (stereo not shown) [Example 445]", 6.69],
  ["O=C(Nc1nn[nH]n1)c1ccc(CN(C(=O)Nc2cccc(Br)c2)c2ccc(C3=CCCCC3)cc2)cc1 [Example 349]", 8.22],
  ["CC(C)Cc1ccc(C(=O)N(Cc2ccc(C(=O)Nc3nn[nH]n3)cc2)c2ccc(N3CCCCC3)cc2)cc1 [Example 518]", 5.83]
]}

Ask: // returns reported pIC50 for input CS(=O)(=O)c1ccccc1NC(=O)N(Cc1ccc(C(=O)Nc2nn[nH]n2)cc1)c1ccc(C2CCCCC2)cc1 [Example 466]
Result: 5.57

Ask: Thanks! And Cc1ccc(NC(=O)N(Cc2ccc(C(=O)Nc3nn[nH]n3)cc2)c2ccc(C3CCCCC3)cc2)cc1S(C)(=O)=O [Example 305] ?
Result: 7.26
